Assay: Pharmacokinetic studies of certain compounds in female Balb/c mice (Example 5)
Type: in vivo
Conditions: female, Balb/c, mouse, plasma, po, 30 mg/kg, I-3 PO 30 mg/kg, 4 hr, read-out: Plasma concentration Individual
value-type: concentration at 4 hr
Form entry: enter the amount, then its unit.

Recorded concentration at 4 hr of CC(C)Cc1sc(Nc2ncc(-c3cccs3)cc2C(=O)O)nc1C1CCCCC1 [Compound I-3] , please. 991 ng/mL

====

Experiment: Pharmacokinetic studies of certain compounds in female Balb/c mice (Example 5)
Type: in vivo
Details: female, Balb/c, mouse, plasma, po, 30 mg/kg, I-1 PO 30 mg/kg, 0.25 hr, read-out: Plasma concentration Individual
value-type: concentration at 0.25 hr (ng/mL)
Numeric answer only, unit ng/mL assumed.

Entry under review: `CC(C)Cc1sc(Nc2ncc(-c3cccs3)cc2C(=O)O)nc1C1=CCOCC1` . Reported concentration at 0.25 hr? 383

====

Experiment: Pharmacokinetic study of I-11 in female BALB/c mice (Example 4)
Format: in vivo, Balb/c mouse
Conditions: female, BALB/c, mouse, plasma, po, 100 mg/kg, PO 100 mg/kg, 2 hr, read-out: Plasma concentration Individual
Procedure: Pharmacokinetic Study in Female BALB/c Mice: Balb/c mouse, 17-19 g, 8-10 weeks, female, N=27, purchased from JH Laboratory Animal Co. LTD Fasted overnight and fed at 4 hr post dosing. Animals dosed with sampling at 0.083, 0.25, 0.5, 1, 2, 4, 8, 24 hr post dose. 8 time points. Semi-serial bleeding for plasma only. The animals were restrained manually at the designated time points. Approx. […] Plasma samples were analyzed for I-11 using LC-MS using a calibration curve of known concentrations. […]
value-type: concentration at 2 hr (ng/mL)
Respond numerically; units are ng/mL and should not be typed.

Give its concentration at 2 hr value. Item: `CC(C)Cc1sc(Nc2ncc(-c3cccs3)cc2C(=O)O)nc1C(C)(C)C` 18600

====

Test: Pharmacokinetic studies of certain compounds in female Balb/c mice (Example 5)
Type: in vivo
Details: female, Balb/c, mouse, plasma, po, 100 mg/kg, I-2 PO 100 mg/kg, 0.083 hr, read-out: Plasma concentration Mean
value-type: concentration at 0.083 h (ng/mL)
# number only, unit ng/mL dropped from output

Need concentration at 0.083 h, item CC(C)Cc1sc(Nc2ncc(-c3cccs3)cc2C(=O)O)nc1C1=CCCCC1 [Compound I-2] 249

====

Experiment: Pharmacokinetic study of I-11 in female BALB/c mice (Example 4)
Type: in vivo, Balb/c mouse
Details: female, BALB/c, mouse, plasma, po, 50 mg/kg, PO 50 mg/kg, 0.5 hr, read-out: Plasma concentration Mean
value-type: concentration at 0.5 hr (ng/mL)
Provide only the numeric value, understood in ng/mL.

Give the measured concentration at 0.5 hr of `CC(C)Cc1sc(Nc2ncc(-c3cccs3)cc2C(=O)O)nc1C(C)(C)C` . 5850

====

Experiment: Pharmacokinetic study of I-11 in female BALB/c mice (Example 4)
Assay type: in vivo, Balb/c mouse
Conditions: mouse, plasma, PO 100 mg/kg
value-type: Cmax

Given CC(C)Cc1sc(Nc2ncc(-c3cccs3)cc2C(=O)O)nc1C(C)(C)C [Compound I-11] , state its recorded Cmax. 15000 ng/mL

Hello, the source for this data is patent US20240208961A1, in case you need it.
